# testSystem: UniProt:Q9Y2I7
# protocolDescription: PIKFYVE assay (luciferase ADP-Glo kinase assay, Promega)
# Format: biochemical
# runParameters: Table 3
readoutName: IC50

1) Cn1cc(CCOc2nc(N3CCOCC3)cc(-n3ccc(-c4cn(C)c5ccccc45)n3)n2)cn1 [Compound 232] ... 100 to 5000 nM
2) Cc1cccc(-c2ccn(-c3cc(N4CCOCC4)nc(OCCO)n3)n2)c1 [Compound 121] ... 3 to 10 nM
3) COC(C)(CO)c1nc(N2CCOCC2)cc(-n2ccc(-c3cccc(C)c3)n2)n1 (stereo not drawn) [Compound 227] ... < 3 nM

----------
In this section, each of the compounds is paired with its reported pEC50.
# testSystem: PIKFYVE (Homo sapiens, UniProt Q9Y2I7)
# Sequence (Q9Y2I7 whole entry): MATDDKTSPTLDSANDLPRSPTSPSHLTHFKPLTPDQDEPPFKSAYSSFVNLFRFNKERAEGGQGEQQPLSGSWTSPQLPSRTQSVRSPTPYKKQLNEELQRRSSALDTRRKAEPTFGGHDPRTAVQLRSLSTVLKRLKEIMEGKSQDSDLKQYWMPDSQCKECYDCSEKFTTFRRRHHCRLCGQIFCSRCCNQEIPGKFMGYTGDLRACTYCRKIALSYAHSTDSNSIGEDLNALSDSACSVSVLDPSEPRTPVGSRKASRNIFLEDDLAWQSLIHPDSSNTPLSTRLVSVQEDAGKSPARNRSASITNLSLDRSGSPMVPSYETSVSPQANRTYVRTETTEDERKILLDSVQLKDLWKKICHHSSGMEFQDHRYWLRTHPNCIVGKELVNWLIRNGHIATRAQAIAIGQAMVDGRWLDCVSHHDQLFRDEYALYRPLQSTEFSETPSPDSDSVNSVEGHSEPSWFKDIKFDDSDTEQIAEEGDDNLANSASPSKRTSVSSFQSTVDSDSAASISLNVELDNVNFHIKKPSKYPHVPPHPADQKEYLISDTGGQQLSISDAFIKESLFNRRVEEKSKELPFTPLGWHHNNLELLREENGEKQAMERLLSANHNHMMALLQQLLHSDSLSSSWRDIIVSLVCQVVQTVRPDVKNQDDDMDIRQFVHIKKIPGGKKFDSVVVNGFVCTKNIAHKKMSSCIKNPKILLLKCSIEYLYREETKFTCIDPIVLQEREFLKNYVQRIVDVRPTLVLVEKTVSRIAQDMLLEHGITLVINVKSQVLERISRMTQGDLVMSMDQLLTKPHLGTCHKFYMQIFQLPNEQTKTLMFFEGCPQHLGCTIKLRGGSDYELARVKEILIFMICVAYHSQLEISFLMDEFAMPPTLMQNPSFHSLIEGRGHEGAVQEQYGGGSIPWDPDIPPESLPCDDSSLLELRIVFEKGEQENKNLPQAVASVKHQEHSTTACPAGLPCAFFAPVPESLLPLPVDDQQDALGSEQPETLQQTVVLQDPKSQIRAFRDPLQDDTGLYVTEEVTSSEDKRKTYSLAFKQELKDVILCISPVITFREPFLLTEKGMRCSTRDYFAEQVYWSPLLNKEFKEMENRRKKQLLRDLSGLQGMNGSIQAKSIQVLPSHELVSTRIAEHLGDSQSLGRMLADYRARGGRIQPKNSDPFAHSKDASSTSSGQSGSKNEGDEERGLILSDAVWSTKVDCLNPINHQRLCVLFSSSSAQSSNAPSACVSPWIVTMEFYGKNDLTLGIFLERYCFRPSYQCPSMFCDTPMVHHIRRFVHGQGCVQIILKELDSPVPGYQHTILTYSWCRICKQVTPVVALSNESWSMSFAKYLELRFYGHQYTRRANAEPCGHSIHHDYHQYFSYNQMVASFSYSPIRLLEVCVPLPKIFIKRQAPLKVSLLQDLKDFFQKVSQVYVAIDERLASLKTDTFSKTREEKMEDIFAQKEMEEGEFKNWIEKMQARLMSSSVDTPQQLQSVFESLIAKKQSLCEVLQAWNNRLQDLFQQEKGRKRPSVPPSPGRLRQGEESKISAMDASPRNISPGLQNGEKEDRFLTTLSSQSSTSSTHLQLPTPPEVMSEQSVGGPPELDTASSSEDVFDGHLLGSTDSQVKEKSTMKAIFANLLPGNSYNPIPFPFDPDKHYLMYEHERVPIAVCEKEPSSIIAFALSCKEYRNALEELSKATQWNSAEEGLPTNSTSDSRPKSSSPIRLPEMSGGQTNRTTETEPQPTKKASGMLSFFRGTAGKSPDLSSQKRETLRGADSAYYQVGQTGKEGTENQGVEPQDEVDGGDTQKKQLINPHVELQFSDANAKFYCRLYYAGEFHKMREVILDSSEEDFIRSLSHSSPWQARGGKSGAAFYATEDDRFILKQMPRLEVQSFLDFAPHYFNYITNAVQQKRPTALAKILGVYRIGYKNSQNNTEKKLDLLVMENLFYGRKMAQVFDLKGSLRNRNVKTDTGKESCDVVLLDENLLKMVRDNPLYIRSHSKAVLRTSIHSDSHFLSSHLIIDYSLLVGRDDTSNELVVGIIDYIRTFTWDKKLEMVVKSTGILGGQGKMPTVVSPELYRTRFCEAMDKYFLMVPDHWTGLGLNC
# protocolDescription: Cell-based Pikfyve inhibition activity assay (EEA1 staining, mean vesicle size in BJ fibroblast cells)
# runParameters: Table 4, 4 hours treatment, 3 μM Apilimod = 100% inhibition
pEC50: −log10 of the molar value.
readoutName: pEC50

1. Cc1cccc(-c2ccn(-c3cc(N4CCOCC4)nc(OC(CN(C)C)c4ccccc4)n3)n2)c1 (stereo not shown) ... 6.30 to 7.00
2. Cc1cccc(-c2ccn(-c3cc(N4CCOCC4)nc(OCCn4cnc(CN(C)C)c4)n3)n2)c1 ... 5.30 to 6.30
3. Cc1cccc(-c2ccn(-c3cc(N4CCOCC4)nc(OCCc4ccnn4C)n3)n2)c1 ... 7.00 to 7.70
4. COC(Cc1ccccc1)c1nc(N2CCOCC2)cc(-n2ccc(-c3ccccc3)n2)n1 (stereo not shown) ... 5.30 to 6.30

----------
# testSystem: PIKFYVE (Homo sapiens)
# protocolDescription: PIKFYVE assay (luciferase ADP-Glo kinase assay, Promega)
# Type: biochemical
# runParameters: Table 3
Documented IC50 across a set of compounds
readoutName: IC50

1) OC(c1ccccc1)c1nc(N2CCOCC2)cc(-n2ccc(-c3ccccc3)n2)n1 (stereo not drawn) ... 10 to 100 nM
2) Cn1cc(CCOc2nc(N3CCOCC3)cc(-n3ccc(-c4ccccn4)n3)n2)cn1 ... 3 to 10 nM
3) CNCCc1cc(-c2ccccc2)nn1-c1cc(N2CCOCC2)nc(OCCc2cnn(C)c2)n1 ... < 3 nM
4) Cc1cccc(-c2ccn(-c3cc(N4CCOCC4)nc(O)n3)n2)c1 ... 10 to 100 nM
5) C[C@H](O)c1cccc(-c2ccn(-c3cc(N4CCOCC4)nc(OCCc4cnn(C)c4)n3)n2)c1 (single isomer, unassigned) ... 3 to 10 nM
6) Cc1cccc(-c2ccn(-c3cc(N4CCOCC4)nc(CCc4cnn(C)c4)n3)n2)c1 ... < 3 nM
7) Cc1cc(-c2c[nH]c3ccccc23)nn1-c1cc(N2CCOCC2)nc(C2COCCO2)n1 (single isomer, unassigned) [Compound 345] ... < 3 nM
8) COC(C)(CO)c1nc(N2CCOCC2)cc(-n2ccc(-c3cccc(C)c3)n2)n1 (stereo not drawn) [Compound 226] ... 3 to 10 nM
9) Cc1cccc(-c2ccn(-c3cc(N4CCOCC4)nc(C#CC(O)c4cnn(C)c4)n3)n2)c1 (stereo not drawn) ... < 3 nM
10) Cc1cccc(-c2ccn(-c3cc(N4CCOCC4)nc(NC(=O)CCc4cnn(C)c4)n3)n2)c1 ... < 3 nM
11) CO[C@H](CO)c1nc(N2CCOCC2)cc(-n2ccc(-c3cccc4c3OCO4)n2)n1 ... 100 to 5000 nM
12) CO[C@H](CO)c1nc(N2CCOCC2)cc(-n2ccc(-c3c[nH]c4ncccc34)n2)n1 ... 10 to 100 nM
13) CO[C@H](CO)c1nc(N2CCOCC2)cc(-n2ccc(-c3cccc4ncsc34)n2)n1 ... 100 to 5000 nM
14) CO[C@@H](CO)c1nc(N2CCOCC2)cc(-n2ccc(-c3c[nH]c4ncccc34)n2)n1 ... 10 to 100 nM
15) CO[C@H](CO)c1nc(N2CCO[C@@H](C)C2)cc(-n2ccc(-c3cccc(C)c3)n2)n1 (single isomer, unassigned) ... 10 to 100 nM
16) Cn1cc(CCOc2nc(N3CCOCC3)cc(-n3ccc(C4CCCCC4)n3)n2)cn1 ... > 5000 nM
17) COCc1cccc(-c2ccn(-c3cc(N4CCOCC4)nc(OCCc4cnn(C)c4)n3)n2)c1 ... < 3 nM
18) Cc1cccc(N2CC(C)N(c3cc(N4CCOCC4)nc(OCCc4cnn(C)c4)n3)C2=O)c1 (stereo not drawn) ... 100 to 5000 nM
19) CO[C@@H](C)c1cccc(-c2ccn(-c3cc(N4CCOCC4)nc(OCCc4cnn(C)c4)n3)n2)c1 (single isomer, unassigned) ... < 3 nM
20) CO[C@@H](CO)c1nc(N2CCOCC2)cc(-n2nc(-c3ccccc3)cc2C)n1 ... 10 to 100 nM
21) CO[C@@H](CO)c1nc(N2CCOCC2)cc(-n2ccc(-c3csc4ccccc34)n2)n1 (single isomer, unassigned) ... 3 to 10 nM
22) Cc1cccc(-c2ccn(-c3cc(N4CCOCC4)c4[nH]c(C)cc4n3)n2)c1 ... 10 to 100 nM
23) COCc1cc(-c2ccccc2)nn1-c1cc(N2CCOCC2)nc(OCCc2cnn(C)c2)n1 ... < 3 nM
24) Cc1ccc(C)c(-c2ccn(-c3cc(N4CCOCC4)nc(OCCc4cnn(C)c4)n3)n2)c1 ... 3 to 10 nM
25) Cc1cccc(-c2ccn(-c3cc(N4CCOCC4)nc(N(C)CCc4ccccn4)n3)n2)c1 ... 3 to 10 nM
26) Cc1cccc(-c2ccn(-c3cc(N4CCOCC4)nc([C@@H]4CCOC4)n3)n2)c1 (single isomer, unassigned) ... 3 to 10 nM
27) CO[C@H](CO)c1nc(N2CCOCC2)cc(-n2nc(-c3c[nH]c4ccncc34)cc2C)n1 ... 100 to 5000 nM
28) Cc1cccc(-c2ccn(-c3cc(N4CCOCC4)nc([C@H]4COCCO4)n3)n2)c1 (single isomer, unassigned) ... 10 to 100 nM
29) CO[C@H](CO)c1nc(N2CCOCC2)cc(-n2ccc(-c3cccc(C)c3C)n2)n1 ... 100 to 5000 nM
30) CO[C@@H](CO)c1nc(N2CCO[C@H](C)C2)cc(-n2ccc(-c3cccc(C)c3)n2)n1 (single isomer, unassigned) ... 10 to 100 nM
